# key: entry, value: viability at 48 h
- protocol: in vitro
- conditions used: human, HepG2-A16-CD81EGFP cells, uninfected
value type: viability at 48 h (%)

In [3]: df
Out[3]:
                                    molecule  reading_unit  test_value
 0               CCCn1c2c(c(=N)c3c1CCC3)CCC2             %        99.2
 1    c1ccc(CCNc2nc(-c3ccccn3)nc3ccccc23)cc1             %        96.1
 2  Cc1ccc(-c2nc(CN3CCCCC3)cc(CN3CCCCC3)c2O)cc1             %         101
 3  CCN(c1ccccc1)[S+](=O)([O-])c1ccc(NC(=O)c2cc(=O)c3cc(C)ccc3o2)cc1             %        97.5
 4  CCCCNc1nc2sc3c(c2c(=O)n1-c1cccc(Cl)c1)CCN(C)C3             %         106
 5  COc1cc(O)c(C(CCN2CCCC(C)C2)c2ccc(N(C)C)cc2)c(OC)c1 (stereo not drawn)             %         110
 6  Cc1nccn1CC(O)Cn1c2ccccc2c2ccccc21 (stereo not drawn)             %         103
 7   Clc1cccc(CN2CCc3c([nH]c4ccccc34)C2)c1Cl             %         104
 8     O=C1C=C(O)C=CC1=CNNc1ccnc2cc(Cl)ccc12             %         101
 9      Cc1ccc(/C=N/NC(=O)c2cc3ccccc3cc2O)o1             %        97.9
10  Cc1cccc(NC(=O)Cn2c(C)c(C#N)c3ccccc32)c1C             %        99.9
11  CCC(=O)N1CCc2cc(Br)cc(S(=O)(=O)N3CCCC(C(=O)NC(C)(C)C)C3)c21 (stereo not drawn)             %        98.3
12     Cc1cccc(Oc2nc(-c3ccccn3)nc3ccccc23)c1             %         106
13       Oc1ccccc1Nc1nc(NCc2ccco2)c2ccccc2n1             %        95.6
14  CCOC(=O)C1=C(C)N=c2sc(=Cc3ccc(OCC(=O)O)cc3)c(=O)n2C1c1cc(OC)c(OC)c(OC)c1 (stereo not drawn)             %          98
15    COc1ccccc1-c1nnc2sc(COc3ccc(F)cc3)nn12             %         102
16  CCN1CCCC1CNc1ncnc2c1[nH]c1ccc(Cl)cc12 (stereo not drawn)             %        98.5
17           c1cc(Nc2ncnc3sc4c(c23)CCC4)ccn1             %         103

----------
activity at 3 µM values by entry
- System: P. berghei-ANKA-GFP-LucCON liver stage parasites in HepG2-A16-CD81EGFP cells
- protocol: P. berghei liver stage Pb-Luc assay, Method 1 (UCSD, 1536-well); further: reference of the scale not given here
- Type: cell-based, Plasmodium berghei
- conditions used: Plasmodium berghei, 48 h, nominal 3 uM (10 mM stock); 4.5 uM for 15 mM, 3.6 uM for 12 mM, 6 uM for 20 mM stock; average of 2 wells, 1536-well plate; repeat 3; read-out: Pb-Luc signal, 3 uM, repeat 3
value type: activity at 3 µM (%)

In [3]: df
Out[3]:
                                    compound                             system_tested        value_type  reading_unit  test_value
 0  C[C@H]1[C@@H]2[C@H]3OC(=O)[C@@H](C)[C@@H]3CC[C@@]2(C)CC[C@@H]1NC(=O)CC(C)(C)C  P. berghei-ANKA-GFP-LucCON liver stage parasites in HepG2-A16-CD81EGFP cells  activity at 3 µM             %        99.6
 1  COc1ccc(-c2noc(-c3cccn3CC(=O)Nc3ccccc3)n2)cc1F  P. berghei-ANKA-GFP-LucCON liver stage parasites in HepG2-A16-CD81EGFP cells  activity at 3 µM             %         169
 2  CN1c2cc(C(=O)Nc3ccc(C(F)(F)F)cc3)ccc2C(=O)N2CCCCC21 (stereo not drawn)  P. berghei-ANKA-GFP-LucCON liver stage parasites in HepG2-A16-CD81EGFP cells  activity at 3 µM             %         102
 3  Cc1nn2c(c1-c1ccccc1-c1ccccc1)N(CC1CC1)CCC2  P. berghei-ANKA-GFP-LucCON liver stage parasites in HepG2-A16-CD81EGFP cells  activity at 3 µM             %        5.92
 4  CCN1CCN(Cc2c(O)ccc3c(=O)c(Oc4ccccc4Cl)c(C(F)(F)F)oc23)CC1  P. berghei-ANKA-GFP-LucCON liver stage parasites in HepG2-A16-CD81EGFP cells  activity at 3 µM             %        77.7
 5  CN1CCN(C(=O)c2ccc3c(c2)N(Cc2ccc(C(F)(F)F)cc2)C(=O)c2ccccc2S3)CC1  P. berghei-ANKA-GFP-LucCON liver stage parasites in HepG2-A16-CD81EGFP cells  activity at 3 µM             %        92.4
 6  CCCN1C(CC(C)C)=N[S+](=O)([O-])c2cc(NC(=O)c3ccco3)ccc21  P. berghei-ANKA-GFP-LucCON liver stage parasites in HepG2-A16-CD81EGFP cells  activity at 3 µM             %        10.7
 7  CCN1CCN(C(=O)c2ccc3c(c2)N(Cc2ccccc2F)C(=O)c2ccccc2[S+]3[O-])CC1 (stereo not drawn)  P. berghei-ANKA-GFP-LucCON liver stage parasites in HepG2-A16-CD81EGFP cells  activity at 3 µM             %        97.6
 8  CCC(CC)c1cc([C@H]2CN3CC[C@H]2C[C@@H]3CN[S+](=O)([O-])c2ccccc2C#N)nc(-c2ccncc2)n1  P. berghei-ANKA-GFP-LucCON liver stage parasites in HepG2-A16-CD81EGFP cells  activity at 3 µM             %        66.9
 9  CCOC(=O)c1ccc(NC2=CC(c3ccc(O)c(OCC)c3)N(c3ccc(C(=O)OCC)cc3)C2=O)cc1 (stereo not drawn)  P. berghei-ANKA-GFP-LucCON liver stage parasites in HepG2-A16-CD81EGFP cells  activity at 3 µM             %         113
10  COc1ccc(-c2cc([C@H]3CN4CC[C@H]3C[C@@H]4CN[S+](=O)([O-])c3ccc(Cl)cc3)n(C)n2)cc1OC  P. berghei-ANKA-GFP-LucCON liver stage parasites in HepG2-A16-CD81EGFP cells  activity at 3 µM             %        89.6
11  CCN1CCN(Cc2c(O)ccc3c(=O)c(Oc4ccccc4C(C)C)c(C(F)(F)F)oc23)CC1  P. berghei-ANKA-GFP-LucCON liver stage parasites in HepG2-A16-CD81EGFP cells  activity at 3 µM             %         121
12  CC1=C(C(=O)Nc2ccc(C)cc2C)C(c2ccc([N+](=O)[O-])cc2)n2ncc(C(=O)Nc3ccc(F)cc3)c2N1 (stereo not drawn)  P. berghei-ANKA-GFP-LucCON liver stage parasites in HepG2-A16-CD81EGFP cells  activity at 3 µM             %        83.4
13  Cc1nn2c(c1-c1ccccc1-c1ccccc1)N(Cc1ccc(O)cc1)CCC2  P. berghei-ANKA-GFP-LucCON liver stage parasites in HepG2-A16-CD81EGFP cells  activity at 3 µM             %        40.5
14  COc1cc2c(cc1OCc1ccccc1)N(C(=O)c1cc3ccccc3[nH]1)CC21CCN(C)CC1  P. berghei-ANKA-GFP-LucCON liver stage parasites in HepG2-A16-CD81EGFP cells  activity at 3 µM             %        95.7

----------
- Test system: Plasmodium falciparum Dd2 asexual blood stage parasites
- protocol: microbe, parasite or virus in culture
- Design: species or system Plasmodium falciparum Dd2 in human erythrocytes; single determination (one 11-point concentration-response curve)
- conditions used: Plasmodium falciparum, DD2, Erythrocyte, 72 h; read-out: AC50
value type: AC50 (nM)

In [3]: df
Out[3]:
                                   molecule  reading_unit  test_value
0  NCCc1cccc(CN2CCCC(COc3ccccc3F)C2)c1 (stereo not shown) [NCGC00434821-01]            nM        2660
1  CC(C)(C)n1nnnc1C(c1cc2cc3c(cc2[nH]c1=O)OCO3)N1CCN(c2ccccc2)CC1 (stereo not shown) [MLS000072810-01]            nM        7500
2  COc1cccc(-c2c(C#N)c(N)nc3c2c(C)nn3-c2ccccc2)c1O [MLS001214341-01]            nM        1500
3  O=C(Nc1cccc(-c2nc3ccccc3[nH]2)c1)c1ccc(C(=O)Nc2cccc(-c3nc4ccccc4[nH]3)c2)cc1 [MLS000766212-01]            nM        2660
